Listing of entries alongside the reported Ref Fab competition (%).
- tested.on: T1, Human soluble IL-6R (human, UniProt P08887 20-358)
- T1 construct: Soluble recombinant form; biotinylated in some assays; also called hIL-6R; human IL-6R
- T1 sequence (looked up): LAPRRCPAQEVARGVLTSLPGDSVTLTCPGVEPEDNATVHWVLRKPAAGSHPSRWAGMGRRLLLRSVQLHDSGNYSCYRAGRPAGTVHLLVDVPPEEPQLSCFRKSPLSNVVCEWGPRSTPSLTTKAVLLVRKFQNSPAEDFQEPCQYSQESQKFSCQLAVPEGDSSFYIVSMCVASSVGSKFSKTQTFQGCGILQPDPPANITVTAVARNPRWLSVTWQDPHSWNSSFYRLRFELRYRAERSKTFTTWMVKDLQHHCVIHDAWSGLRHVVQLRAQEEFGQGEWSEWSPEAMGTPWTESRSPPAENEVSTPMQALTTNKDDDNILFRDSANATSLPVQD
- method: competition for IL-6R, competitor reference Fab, summary table C-13
Output spec: scalar in %, unitless text.

IL6R07 (VHH, also called PMP33A3; not shown: C-terminal c-myc and (His)6 tags) VHH: EVQLVESGGGLVQPGGSLRLSCAASGFTLDYGAIGWFRQAPGKEREGVSCISSSTGSTYYADSVKGRFTISRDNGKNTVYLQMNSLKPEDTAVYYCAADKMWSPCLVAANEEALFEYDYWGQGTQVTVSS | 80
IL6R14 (VHH, also called PMP40H5; not shown: C-terminal c-myc and (His)6 tags) VHH: EVQLVESGGGLVQPGGSLRLSCAASGFSLDYYAIGWFRQAPGKEREGVSCMDSSSGTTSTYYSDSVKGRFTISRDDAKNTVYLQMNSLKPEDTAVYYCAADGHLNWGQRYVPCSQISWRGWNDYWGQGTQVTVSS | 96
IL6R13 (VHH, also called PMP35H4; not shown: C-terminal c-myc and (His)6 tags) VHH: EVQLVESGGGLVQPGGSLRLSCAASGFTFDDYGMSWVRQAPGRATEWVSAISWNGNNTYYTESMKGRFTISRDNAKNTVYLQMNSLKPEDTAVYYCVKGSTAIVGVPPTYPDEYDYWGQGTQVTVSS | 25
IL6R04 (VHH, also called PMP32C9; not shown: C-terminal c-myc and (His)6 tags) VHH: EVQLVESGGGLVQAGGSLRLSCAASGFTFDDYDIGWFRQAPGKEREGVSGISSSDGNTYYADSVKGRFTISSDNAKNTVYLQMNSLKPEDTAVYYCAAEPPDSSWYLDGSPEFFKYWGQGTQVTVSS | 50
IL6R10 (VHH, also called PMP35C10; not shown: C-terminal c-myc and (His)6 tags) VHH: EVQLVESGGGLVQAGGSLRLSCAASGRTFSSYDMGWYRQAPGKEREFVAVIHWSSGSTYYADPVKGRFTISRDNAKNTVYLQMNSLKPEDTAIYYCNAFLPGPEGFHDYWGQGTQVTVSS | 102

Exercise: Quick check: Ref Fab competition (%) of IL6R02 (VHH, also called PMP30C11; not shown: C-terminal c-myc and (His)6 tags) VHH: EVQLVESGGGLVQAGGSLRLSCAASGRTFSSYDMGWYRQAPGKEREFVAVISRSGSSTYYADSVKGRFTISRDNAKNTVYLQMNSLKPEDTAIYYCKAEVVAGDYDYWGQGTQVTVSS ?
Key: 86

Exercise: Quick check: Ref Fab competition (%) of IL6R08 (VHH, also called PMP34A12; not shown: C-terminal c-myc and (His)6 tags) VHH: EVQLVESGGGLVQPGGSLRLSCVASGFSLDYYVIGWFRQAPGKEREGVSCISSSDGSTYYADSVKGRFTISRDNAKNTVYLQMNSLKPEDTAVYYCAADLLRTPEFCVDSAPYDYWGQGTQVTVSS ?
Key: 99

Exercise: Quick check: Ref Fab competition (%) of IL6R06 (VHH, also called PMP32E2; not shown: C-terminal c-myc and (His)6 tags) VHH: EVQLVESGGGLVQAGGSLRLSCAASGNIFDDNTMGWTWNRQPPGKQRELVAIIATDGSTNYADSVKGRFTISRDNAKNTVYLQMNSLKPEDTAVYYCNLFSLRLGRDYWGQGTQVTVSS ?
Key: 36

Exercise: Quick check: Ref Fab competition (%) of IL6R05 (VHH, also called PMP32E10; not shown: C-terminal c-myc and (His)6 tags) VHH: EVQLVESGGGLVQPGGSLRLSCAASGFTFGSYDMSWVRQAPGKGPEWVSAINSGGGSTYYADSVKGRFTISRDNAKNTLYLQMNSLKPEDTAVYYCATDWRYSDYDLPLPPPGDYWGQGTQVTVSS ?
Key: 64

Exercise: Quick check: Ref Fab competition (%) of IL6R11 (VHH, also called PMP35E11; not shown: C-terminal c-myc and (His)6 tags) VHH: EVQLVESGGGLVQAGGSLRLSCAASGFTFDDYAIGWFRQAPGKEHEGVSCISSSDGSTYYADSVKGRFTISSDNAKNTVYLQMNSLKPEDTAVYYCAAERDVPARSLCGSYYWYDYRGQGTQVTVSS ?
Key: 40
